# Experimental System: T1, CAPRIN-1 protein expressed on the membrane surface of human cancer cells (human, UniProt Q14444 2-709)
# T1 sequence (looked up): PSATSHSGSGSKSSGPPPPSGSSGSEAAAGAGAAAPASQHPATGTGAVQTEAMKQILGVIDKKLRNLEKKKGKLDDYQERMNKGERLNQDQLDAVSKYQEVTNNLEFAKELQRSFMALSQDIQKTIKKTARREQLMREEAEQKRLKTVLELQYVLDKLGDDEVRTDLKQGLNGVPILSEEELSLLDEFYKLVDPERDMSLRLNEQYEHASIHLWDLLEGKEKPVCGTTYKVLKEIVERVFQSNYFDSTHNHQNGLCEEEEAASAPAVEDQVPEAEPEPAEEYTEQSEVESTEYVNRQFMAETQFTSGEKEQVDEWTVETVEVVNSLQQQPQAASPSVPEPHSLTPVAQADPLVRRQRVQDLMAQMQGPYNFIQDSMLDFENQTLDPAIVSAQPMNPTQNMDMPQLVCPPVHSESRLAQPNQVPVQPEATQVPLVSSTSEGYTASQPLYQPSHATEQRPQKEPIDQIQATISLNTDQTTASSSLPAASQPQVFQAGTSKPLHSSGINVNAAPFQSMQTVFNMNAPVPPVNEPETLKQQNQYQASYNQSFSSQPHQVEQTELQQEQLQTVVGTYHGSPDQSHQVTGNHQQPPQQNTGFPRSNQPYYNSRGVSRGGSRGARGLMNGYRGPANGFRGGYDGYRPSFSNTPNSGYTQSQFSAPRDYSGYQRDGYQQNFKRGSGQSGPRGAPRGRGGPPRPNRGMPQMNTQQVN
# Assay Info: cell-based or functional assay
Assignment: determine reported ADCC cytotoxic activity (51Cr release) on Caki-2 for the given binders.

Consider the worked cases shown below.
Binder	Observed
humanized antibody #7 (antibody, V domains shown) VH: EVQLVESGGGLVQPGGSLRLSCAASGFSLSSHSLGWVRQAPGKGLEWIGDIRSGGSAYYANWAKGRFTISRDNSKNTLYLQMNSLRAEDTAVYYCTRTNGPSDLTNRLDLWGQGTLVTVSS VL: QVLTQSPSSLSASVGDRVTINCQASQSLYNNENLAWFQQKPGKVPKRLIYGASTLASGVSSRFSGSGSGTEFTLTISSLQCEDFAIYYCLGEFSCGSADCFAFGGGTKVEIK	≥ 37%
humanized antibody #5 (antibody, V domains shown) VH: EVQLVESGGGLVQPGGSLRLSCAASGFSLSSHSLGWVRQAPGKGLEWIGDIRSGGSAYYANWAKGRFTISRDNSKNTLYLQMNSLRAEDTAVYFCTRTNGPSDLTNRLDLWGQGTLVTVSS VL: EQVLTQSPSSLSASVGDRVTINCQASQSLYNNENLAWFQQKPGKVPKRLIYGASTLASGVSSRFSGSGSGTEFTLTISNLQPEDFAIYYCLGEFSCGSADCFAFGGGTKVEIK	≥ 33%
humanized antibody #4 (antibody, V domains shown) VH: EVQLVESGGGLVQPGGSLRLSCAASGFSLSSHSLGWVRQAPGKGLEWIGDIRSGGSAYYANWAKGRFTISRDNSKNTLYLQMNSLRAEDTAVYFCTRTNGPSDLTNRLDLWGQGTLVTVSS VL: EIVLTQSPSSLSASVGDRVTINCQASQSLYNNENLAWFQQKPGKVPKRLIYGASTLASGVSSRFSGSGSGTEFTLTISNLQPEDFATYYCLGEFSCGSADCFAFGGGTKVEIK	≥ 33%
humanized antibody #1 (antibody, V domains shown) VH: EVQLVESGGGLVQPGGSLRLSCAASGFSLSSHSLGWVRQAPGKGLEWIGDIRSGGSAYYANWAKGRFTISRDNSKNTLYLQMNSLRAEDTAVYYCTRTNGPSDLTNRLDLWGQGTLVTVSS VL: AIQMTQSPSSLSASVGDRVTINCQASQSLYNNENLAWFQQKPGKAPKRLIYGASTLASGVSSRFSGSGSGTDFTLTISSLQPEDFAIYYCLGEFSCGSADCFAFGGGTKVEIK	≥ 26%

Lab note: humanized antibody #6 (antibody, V domains shown) VH: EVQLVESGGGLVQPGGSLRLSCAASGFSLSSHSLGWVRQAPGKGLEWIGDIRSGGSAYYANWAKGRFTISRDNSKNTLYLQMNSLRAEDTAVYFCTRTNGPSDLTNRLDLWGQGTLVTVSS VL: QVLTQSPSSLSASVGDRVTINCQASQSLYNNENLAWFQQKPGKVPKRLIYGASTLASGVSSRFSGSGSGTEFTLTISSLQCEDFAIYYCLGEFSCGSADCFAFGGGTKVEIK gave ADCC cytotoxic activity (51Cr release) on Caki-2 of ≥ 37%

This collection of values is drawn from patent US20160297889A1.
